target.entity: recombinant human mGluR2 (Homo sapiens, UniProt Q14416)
Construct: expressed in transfected cells
Sequence (Q14416 19-872): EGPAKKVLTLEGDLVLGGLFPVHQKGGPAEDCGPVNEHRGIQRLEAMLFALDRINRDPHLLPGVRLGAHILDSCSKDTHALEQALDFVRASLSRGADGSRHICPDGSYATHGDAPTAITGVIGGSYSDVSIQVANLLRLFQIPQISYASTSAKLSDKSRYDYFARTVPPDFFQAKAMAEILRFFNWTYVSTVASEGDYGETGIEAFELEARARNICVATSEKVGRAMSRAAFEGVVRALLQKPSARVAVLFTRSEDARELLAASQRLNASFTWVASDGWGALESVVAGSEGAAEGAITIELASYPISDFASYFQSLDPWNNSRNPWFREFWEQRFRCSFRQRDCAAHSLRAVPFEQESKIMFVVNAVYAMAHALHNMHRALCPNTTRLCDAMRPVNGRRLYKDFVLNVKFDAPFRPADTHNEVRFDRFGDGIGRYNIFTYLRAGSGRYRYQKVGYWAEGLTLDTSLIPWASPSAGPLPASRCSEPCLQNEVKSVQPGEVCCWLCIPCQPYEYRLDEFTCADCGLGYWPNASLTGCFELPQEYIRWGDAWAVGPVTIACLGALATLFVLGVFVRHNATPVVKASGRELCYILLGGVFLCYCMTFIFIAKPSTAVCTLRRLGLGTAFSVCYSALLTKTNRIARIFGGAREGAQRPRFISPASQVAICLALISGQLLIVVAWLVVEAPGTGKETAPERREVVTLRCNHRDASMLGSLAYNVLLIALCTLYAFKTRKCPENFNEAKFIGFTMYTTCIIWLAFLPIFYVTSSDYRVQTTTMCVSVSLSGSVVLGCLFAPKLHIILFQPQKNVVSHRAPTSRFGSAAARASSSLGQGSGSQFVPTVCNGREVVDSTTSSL
test.method.notes: FLIPR Ca2+ mobilization assay, potentiation of mGluR2 receptor
Type: cell-based
measurement.context: CHO dhfr- cells expressing human mGluR2 and Gα16; potentiation after EC20 glutamate (900 nM); read-out: FLIPR EC50
readout.type: EC50 (nM)

molecule: Cn1c(=O)n(CC(C)(C)C)c2ccc(-c3ncccc3C(F)(F)F)cc21 [Example 1-148]
number: 126
//
molecule: Cn1c(=O)n(CC(C)(C)C)c2ccc(-c3cc(Oc4cccc(C#N)n4)ccc3C#N)c(F)c21 [Example 8-5]
number: 40
//
molecule: Cn1c(=O)n(CC(C)(C)C)c2ccc(-c3cccc(C(O)c4ccccc4)c3)cc21 (centres unmarked) [Example 10-3]
number: 129
//
molecule: Cn1c(=O)n(CC(C)(C)C)c2ccc(-c3cccc(Oc4cc(C(F)(F)F)ccn4)c3)cc21 [Example 2-4]
number: 496
//
molecule: Cn1c(=O)n(CC(C)(C)C)c2ccc(-c3cc(C#N)cc(Oc4ccnc(C#N)c4)c3)cc21 [Example 2-38]
number: 41

Taken from patent US8993779B2.
